system: NCI/ADR-RES ovarian; test: NCI-60 one-dose screen, 48 h (100 = growth as untreated, 0 = no growth, -100 = all killed); conditions: 10 µM unless noted
About 83,000 compounds went through this panel and 20% of them were active in at least one assay; those are over-represented in the sample as a whole. Activity calls are given as the source filed them. Rule for the calls: active = growth percent below 10; inactive = the rest.
measured_parameter: growth

COc1cc2nc(Nc3cccc(F)c3)nc(Nc3cc(C)[nH]n3)c2cc1OC: -57.8% [20 µM] (active)
O=C(NCc1ccccc1O)c1cccc2ccccc12: 79.2% (inactive)
Cc1ccc(N=Nc2c(N)nn(-c3ccccc3)c2N)cc1: -5.12% (active)
C=C1C(=O)O[C@H]2[C@H]1CC/C(Cn1cc(-c3cc(C(F)(F)F)cc(C(F)(F)F)c3)nn1)=C\CC[C@@]1(C)O[C@@H]21: -35.7% (active)
CC(C)c1ccc(NC(=O)Nc2ccc(NC(=O)c3ccccc3N)cc2)cc1: 89.5% (inactive)

Batch request: growth per item, same order as input.
1. COc1ccc(/C=C/C(=O)c2ccc(Nc3nc(Nc4ccc(F)cc4)nc(Nc4ccc(Cl)cc4)n3)cc2)cc1
2. O=C1OCC2=C1C(c1cccc(C(F)(F)F)c1)c1cc3c(cc1N2CCO)OCO3 (centres undefined)
3. COc1cc2c3c(c1O)-c1ccccc1[C@@H]1OC(=O)N(CC2)[C@H]31
4. COc1ccc(C2CC(c3ccc(Nc4nc(Nc5ccc(F)cc5)nc(Nc5ccc(F)cc5)n4)cc3)=NN2C(C)=O)cc1 (centres undefined)

Key:
1: 92.4% (inactive); 2: 25% (inactive); 3: 104% (inactive); 4: 80.5% (inactive)
